Value source: patent US20240116985A1

- assayed.system: full-length beta-Catenin (Uniprot ID P35222) (Homo sapiens (Human)) (UniProt P35222)
- Sequence (P35222 whole entry): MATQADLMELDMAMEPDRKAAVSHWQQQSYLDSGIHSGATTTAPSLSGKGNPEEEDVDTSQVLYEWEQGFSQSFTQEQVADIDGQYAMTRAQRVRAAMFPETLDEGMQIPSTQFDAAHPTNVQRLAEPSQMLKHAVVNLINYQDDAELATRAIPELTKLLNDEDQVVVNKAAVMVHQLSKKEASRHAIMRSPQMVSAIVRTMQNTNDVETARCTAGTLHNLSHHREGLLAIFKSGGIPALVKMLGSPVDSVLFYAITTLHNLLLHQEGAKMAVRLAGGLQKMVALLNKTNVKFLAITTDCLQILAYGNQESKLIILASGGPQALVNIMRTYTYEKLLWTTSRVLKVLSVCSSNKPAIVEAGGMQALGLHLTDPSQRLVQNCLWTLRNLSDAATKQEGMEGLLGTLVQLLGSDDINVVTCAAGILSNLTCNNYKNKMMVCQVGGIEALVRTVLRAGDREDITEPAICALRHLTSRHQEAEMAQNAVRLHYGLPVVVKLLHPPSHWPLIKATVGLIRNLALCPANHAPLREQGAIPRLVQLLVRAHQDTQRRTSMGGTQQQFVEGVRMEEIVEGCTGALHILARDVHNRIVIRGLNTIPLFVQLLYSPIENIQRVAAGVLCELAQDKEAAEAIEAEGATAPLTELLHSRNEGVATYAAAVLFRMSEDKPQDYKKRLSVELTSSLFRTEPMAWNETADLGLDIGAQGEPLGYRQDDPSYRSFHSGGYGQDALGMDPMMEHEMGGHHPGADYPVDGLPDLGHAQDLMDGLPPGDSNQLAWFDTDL
- assay.summary: fluorescence polarization competition; 10 nM full-length beta-catenin + 10 nM 5FAM-TCF4(10-53), peptide titrated
Starred links: 1 amine or outer side, 2 acyl side, 3 side chain; linkers in the order of their positions; H or OH if unused. Positions of bridges follow the written chain, without caps; N, C: chain ends. Non-standard residues stand in square brackets, D forms with d. Primed or numbered codes have the meaning given here. PyrS2″ = (S)-3-amino-1-((pent-4-en-1-yloxy)carbonyl)pyrrolidine-3-carboxylic acid (stapling residue), C=CCCCOC(=O)N1CC[C@@](N[*:1])(C(=O)[*:2])C1; B5(4) = 2,2-bis(4-pentenyl)glycine = 2-amino-2-(pent-4-en-1-yl)hept-6-enoic acid (stitching residue), C=CCCCC(CCCC=C)(N[*:1])C(=O)[*:2]; B5(5) = 2,2-bis(4-pentenyl)glycine, 2-amino-2-(pent-4-en-1-yl)hept-6-enoic acid (stitching residue), C=CCCCC(CCCC=C)(N[*:1])C(=O)[*:2]; Phe(3-COOH) = N[C@@H](Cc1cccc(C(=O)O)c1)C(=O)O; 2F3MeF = Cc1cccc(C[C@H](N[*:1])C(=O)[*:2])c1F; Phe(2-CF3) = N[C@@H](Cc1ccccc1C(F)(F)F)C(=O)O; Ala(4-thiazolyl) = N[C@@H](Cc1cscn1)C(=O)O; Bta = N[C@@H](Cc1csc2ccccc12)C(=O)O; Lys(iPr) = CC(C)NCCCC[C@H](N)C(=O)O; αAllylPro = C=CC[C@@]1(C(=O)O)CCCN1; tBuAla = CC(C)(C)C[C@H](N)C(=O)O; Cha = N[C@@H](CC1CCCCC1)C(=O)O; hSer = N[C@@H](CCO)C(=O)O
Entries and their pIC50
Just so you know, pIC50 here is -log10 of the concentration in molar units; reply with that number alone.

Solved cases (2 shown):
Ac-[αAllylPro]D[tBuAla][B5(4)]D[Phe(3-COOH)]AAFF[PyrS2″][2F3MeF][Bta][dA]-NH2 (staple 1-4, 4-11) [I-2095] ... 7.11
Ac-[αAllylPro]D[tBuAla][B5(4)]D[Phe(3-COOH)]AAFF[PyrS2″][Phe(2-CF3)][Bta][dQ]-NH2 (staple 1-4, 4-11) [I-2093] ... 7.37

Now for another entry.
Exercise: Quote pIC50 reported for Ac-[αAllylPro]N[Cha][B5(5)]DQ[Lys(iPr)]AFN[PyrS2″][Ala(4-thiazolyl)][Bta][hSer]-NH2 (staple 1-4, 4-11) [I-2071] please.
Key: 6.23
